- System: Human alphaherpesvirus 2
- Test details: Antiviral activity against HSV-2 infected in African green monkey Vero cells assessed as inhibition of viral replication by measuring log suppression of virus-induced cytopathic effect at 1 uM incubated for 1 hr followed by washing with PBS and subsequent treatment with compound for 24 hrs by plaque assay
- Assay type: functional
- Condition: time 25 hrs
Measurement kind: log(activity)
Just the number.

### Prompt Name the recorded log(activity) for Cc1cc(CC2CCCCC2)n(O)c(=O)c1 .
### Response 4.19

### Prompt How about this compound: Cc1ccccc1-c1cc(CC2CCCCC2)n(O)c(=O)c1
### Response 0.14

### Prompt How about this compound: O=c1cccc(C2CCCCC2)n1O
### Response 1.23

### Prompt How about this compound: Cc1cc(C2CCC2)n(O)c(=O)c1
### Response 0.26

### Prompt How about this compound: O=c1c2ccccc2cc(-c2ccccc2)n1O
### Response 0.01

### Prompt How about this compound: O=c1cc(Cc2ccccc2)cc(CC2CCCCC2)n1O
### Response 2.39

### Prompt How about this compound: O=c1cc(-c2ccccc2)ccn1O
### Response 0.05

### Prompt How about this compound: Cc1cc(Cc2ccc(-c3ccccc3)cc2)n(O)c(=O)c1
### Response 3.09

### Prompt How about this compound: Cc1cc(Cc2cccc(OCc3ccccc3)c2)n(O)c(=O)c1
### Response 4.04

### Prompt How about this compound: O=c1c2ccccc2cc(Cc2ccccc2)n1O
### Response 0.73

### Prompt How about this compound: Cc1cc2ccccc2c(=O)n1O
### Response 0.01

### Prompt How about this compound: O=c1cc(-c2ccccc2)cc(CC2CCCCC2)n1O
### Response 4.84

### Prompt How about this compound: Cc1cc(C2CCN(C(=O)C(C)C)CC2)n(O)c(=O)c1
### Response -0.08

### Prompt How about this compound: Cc1ccc(-c2cc(CC3CCCCC3)n(O)c(=O)c2)cc1
### Response 0.02

### Prompt How about this compound: Cc1cc(Cc2ccccc2)n(O)c(=O)c1
### Response 1.59

### Prompt How about this compound: Cc1cc(Cc2ccc(Cl)cc2)n(O)c(=O)c1
### Response 3.16

### Prompt How about this compound: Cc1cc(Cc2ccccc2-c2ccccc2)n(O)c(=O)c1
### Response 3.17

### Prompt How about this compound: O=c1cccc(Cc2ccccc2)n1O
### Response 0.34

### Prompt How about this compound: O=c1cc(/C=C/c2ccccc2)cc(CC2CCCCC2)n1O
### Response 4.95

### Prompt How about this compound: O=c1cc(C2CCCCC2)ccn1O
### Response 0.2

### Prompt How about this compound: Cc1cc(C2CCCCCC2)n(O)c(=O)c1
### Response 4.15

### Prompt How about this compound: Cc1cc(Cc2ccccc2Cl)n(O)c(=O)c1
### Response 2.46

### Prompt How about this compound: Cc1cc(C2CCCCC2)n(O)c(=O)c1
### Response 2.6

### Prompt How about this compound: Cc1cc(Cc2cccc3ccccc23)n(O)c(=O)c1
### Response 3.12

### Prompt How about this compound: COc1ccccc1Cc1cc(C)cc(=O)n1O
### Response 1.02

### Prompt How about this compound: Nc1nc2c(ncn2COCCO)c(=O)[nH]1
### Response 1.79

### Prompt How about this compound: O=c1c2ccccc2cc(CC2CCCCC2)n1O
### Response 2.68

### Prompt How about this compound: O=c1ccc(Cc2ccccc2)cn1O
### Response 0.1
